# target desc: Muscarinic Cholinergic receptor
# assay details: Affinity for muscarinic cholinergic receptors in rat brain membranes
pKi: −log10 of the molar value. Where a name gives a salt, the structure may show the parent alone.
Lab note: compare pKi against 8. Equal or greater, write satisfied. Smaller, write not satisfied.

Prompt: Decide: is the reported value of pKi for Fc1ccc(C(=C2CCN(CCCN3CCCCC3)CC2)c2ccc(F)cc2)cc1 [Compound 14] equal to or greater than 8?
Completion: not satisfied

Prompt: Decide: is the reported value of pKi for c1ccc(C(=C2CCN(CCN3CCCCC3)CC2)c2ccccc2)cc1 [Compound 3] equal to or greater than 8?
Completion: satisfied

Prompt: Decide: is the reported value of pKi for OCCC1CCN(CCCN2CCC(=C(c3ccccc3)c3ccccc3)CC2)CC1 [Compound 13, dihydrochloride, monohydrate] equal to or greater than 8?
Completion: satisfied

Prompt: Decide: is the reported value of pKi for c1ccc(C(=C2CCN(CCN3CCOCC3)CC2)c2ccccc2)cc1 [Compound 1, dihydrochloride] equal to or greater than 8?
Completion: not satisfied

Prompt: Decide: is the reported value of pKi for N#CN=C(NCCCN1CCC(=C(c2ccccc2)c2ccccc2)CC1)N1CCCCC1 [Compound 23] equal to or greater than 8?
Completion: satisfied
